Tested on: Wolbachia pipientis
assay_comment: Anti-Wolbachia Cell-Based Screen
Type: functional
Design: scale not given: in the data most compounds retested in dose-response had high values
conditions_used: 5 µM
About 13,000 (27%) of roughly 48,000 compounds showed an effect of 50% or more. This is one part of the list.
Please go through the items and note down their Percent Effect.
Please report the result as a number followed by the unit.

- compound: "CN1C[C@H]2CCN(C(=O)NC3CCCC3)CC[C@H]2S1(=O)=O"
  Percent Effect: "24.31%"

Could I get Percent Effect for every one of these entries?
1. CCNC(=O)[C@@H]1C[C@@H](NC(=O)c2ccc(C)s2)CN1Cc1ccccn1
2. CCNC(=O)[C@@H]1C[C@H](N)CN1Cc1ccc(Sc2ccc(C)cc2)o1
3. Cc1cc(C(=O)NCC(F)(F)F)c2c(C3CCNCC3)noc2n1
4. Cc1cc(C(=O)NCC(F)(F)F)c2c(C3CCCN3)noc2n1 (stereo not given)

Ans:
1: 112.7%; 2: 11.39%; 3: 137.6%; 4: 103.2%

Could I get Percent Effect for every one of these entries?
1. COc1ccc(CC(=O)N2CC[C@@H]3CN(C)S(=O)(=O)[C@@H]3CC2)cc1
2. COc1ccc(CC(=O)N2CCC(c3n[nH]c(C4CC4)n3)CC2)cc1
3. COc1cccc(CC(=O)N2CCC(Cc3nnc(SC)n3C)CC2)c1

Ans:
96.9%
-2.488%
13.49%

Could I get Percent Effect for every one of these entries?
1. COc1cccc(NC(=O)N2CC[C@@H]3CN(C)S(=O)(=O)[C@@H]3CC2)c1
2. CCN1C[C@H]2CCN(C(C)=O)CC[C@H]2S1(=O)=O
3. Cc1cc(NC(C)C(=O)NCC(F)(F)F)nc(-c2ccncc2)n1 (stereo not given)
4. COc1cccc(CC(=O)N2CCN(c3cccc(C)c3)C(C)C2)c1 (stereo not given)
5. CCNC(=O)[C@@H]1C[C@@H](NC(=O)c2cc(C)on2)CN1Cc1ccccn1
6. Cc1ccc(S(=O)(=O)NC(=O)CCOCC(C)C)s1

Ans:
108.6%
7.241%
14.05%
0.04468%
121.6%
14.43%

Q: So what's the measured Percent Effect for this one? CCNC(=O)[C@@H]1C[C@@H](NC(=O)Cc2ccccn2)CN1CCCSC
Ans: -3.005%

====

Please go through the items and note down their Percent Effect.
Tested on: Wolbachia pipientis
assay_comment: Anti-Wolbachia Cell-Based Screen
Format: functional
Design: scale not given: in the data most compounds retested in dose-response had high values
conditions_used: 5 µM
Out of some 48,000 compounds screened, about 13,000 (27%) showed an effect of 50% or more. This is one part of the list.
Answers are plain numbers, in %.

Could I get Percent Effect for every one of these entries?
1. CC(NC(=O)CCc1cccs1)c1nnc2n1CCCCC2 (stereo not drawn)
2. CC(NC(=O)CCc1cccs1)c1nnc2n1CCC2 (stereo not drawn)
3. CC(C)N1CCC2(C=C(C(=O)N(C)C)c3ccccc32)CC1.O=C(O)C(F)(F)F

Ans:
[108.8, -2.805, -1.303]

====

Please go through the items and note down their Percent Effect.
Tested on: Wolbachia pipientis
assay_comment: Anti-Wolbachia Cell-Based Screen
Assay type: functional
Parameters: scale not given: in the data most compounds retested in dose-response had high values
conditions_used: 5 µM
The whole screen tested about 48,000 compounds, of which about 13,000 (27%) showed an effect of 50% or more. The list shows a part of the results.
Numbers only, in %.

Example cases with answers are listed next.
- compound: "CC(C)(C)CN1CCCC2(CCN(C(=O)c3cn[nH]c3)C2)C1 (stereo unspecified)"
  assay_value: -0.3441
- compound: "N#Cc1ccccc1N1CCCN(C(=O)CCc2nccs2)CC1"
  assay_value: 6.343
- compound: "COCCOCC(=O)NCCCOC1CCCc2ccccc21 (stereo unspecified)"
  assay_value: -58.49
- compound: "O=C(CCc1nccs1)N1CCN(c2nccs2)CC1"
  assay_value: 116.1

Could I get Percent Effect for every one of these entries?
1. O=C(CCc1nccs1)N1CCN(c2ccc(Br)cn2)CC1
2. Cc1ccc2nc(C)cc(C(=O)N3C[C@H]4CCC[C@@]4(CO)C3)c2c1

Ans:
15.4
-30.24
